tested on: Clavibacter michiganensis sub. michiganensis; conditions: complete inhibition of bacterial growth, overnight at 25 °C
No end group written: not given here.
Recorded endpoint: Minimal inhibition concentration (MIC) (µg/mL)

substance="LLIRAAKKFIKK-NH2 [SP8]" limit_qualifier=> result_number=40
substance="LLIKFLKRFIKH-NH2 [SP7]" limit_qualifier== result_number=5
substance="ALAHFLKKAIKK-NH2 [SP6]" limit_qualifier=> result_number=40
substance="LLIAAFKKLVKK-NH2 [SP5]" limit_qualifier== result_number=20

###

test system: Pseudomonas syringae pv. syringae; conditions: complete inhibition of bacterial growth; Pseudomonas syringae pv. syringae; overnight at 25 °C
No end group written: not given here.
Collected Minimal inhibition concentration (MIC) values appear next to each entry.
Recorded endpoint: Minimal inhibition concentration (MIC)

substance="LLIKFLKRFIKH-NH2 [SP7]" recorded_endpoint="Minimal inhibition concentration (MIC)" result="10 µg/mL"
substance="ALAHFLKKAIKK-NH2 [SP6]" recorded_endpoint="Minimal inhibition concentration (MIC)" result="5 µg/mL"
substance="LLIAAFKKLVKK-NH2 [SP5]" recorded_endpoint="Minimal inhibition concentration (MIC)" result="40 µg/mL"
substance="LLIRAAKKFIKK-NH2 [SP8]" recorded_endpoint="Minimal inhibition concentration (MIC)" result="> 40 µg/mL"
